Hello, the source for this data is patent US20240109917A1, in case you need it.

molecular target: Tb-labeled inactive PDGFRβ (Homo sapiens (Human), UniProt P09619); assay: PDGFRβ LanthaScreen Assay; type: binding; conditions: read-out: PDGFR Lantha IC50
Sequence (P09619 33-1106): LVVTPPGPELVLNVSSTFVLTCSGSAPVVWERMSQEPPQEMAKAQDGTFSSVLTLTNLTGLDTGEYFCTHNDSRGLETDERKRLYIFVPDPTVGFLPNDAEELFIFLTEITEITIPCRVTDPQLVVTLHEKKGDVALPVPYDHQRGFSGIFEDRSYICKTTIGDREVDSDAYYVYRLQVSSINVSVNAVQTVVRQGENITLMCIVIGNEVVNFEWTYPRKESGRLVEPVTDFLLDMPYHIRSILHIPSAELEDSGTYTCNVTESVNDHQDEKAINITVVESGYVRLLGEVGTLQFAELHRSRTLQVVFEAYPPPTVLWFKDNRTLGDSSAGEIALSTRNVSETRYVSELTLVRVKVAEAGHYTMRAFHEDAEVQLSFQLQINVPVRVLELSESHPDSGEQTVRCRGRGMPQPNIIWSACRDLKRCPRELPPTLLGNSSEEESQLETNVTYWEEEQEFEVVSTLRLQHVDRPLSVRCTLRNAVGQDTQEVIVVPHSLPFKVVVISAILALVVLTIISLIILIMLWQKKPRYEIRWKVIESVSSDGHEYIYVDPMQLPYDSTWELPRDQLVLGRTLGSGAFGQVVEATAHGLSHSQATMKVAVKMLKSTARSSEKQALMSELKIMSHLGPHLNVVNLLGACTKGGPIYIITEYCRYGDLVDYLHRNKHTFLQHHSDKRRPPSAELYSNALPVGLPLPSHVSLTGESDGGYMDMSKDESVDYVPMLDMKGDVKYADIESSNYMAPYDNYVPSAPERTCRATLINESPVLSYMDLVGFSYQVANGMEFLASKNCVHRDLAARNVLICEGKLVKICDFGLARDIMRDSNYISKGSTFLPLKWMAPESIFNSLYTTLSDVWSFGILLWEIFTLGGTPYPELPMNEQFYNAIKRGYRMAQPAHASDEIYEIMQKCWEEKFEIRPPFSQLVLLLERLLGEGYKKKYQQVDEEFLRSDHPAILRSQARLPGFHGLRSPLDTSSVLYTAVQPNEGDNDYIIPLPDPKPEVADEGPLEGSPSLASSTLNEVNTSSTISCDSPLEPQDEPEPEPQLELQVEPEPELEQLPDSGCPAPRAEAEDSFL
MEASUREMENT NAME: pIC50
Entry type: numeric. Quantity: pIC50, the -log10 of concentration in molar units.

COMPOUND	TARGET ENTITY	MEASUREMENT NAME	RESULT
Cc1ncc(NC(=O)CN2CC3(CCCCO3)C2)cc1NC(=O)c1cnn2cc(-c3cnn4c3CCC4)sc12	Tb-labeled inactive PDGFRβ (Homo sapiens (Human), UniProt P09619)	pIC50	8.66

In: I have this compound here, Cc1ncc(C(=O)NCCN2C3CCCC2CCC3)cc1NC(=O)c1cnn2cc(-c3cnn(C)c3)sc12 , and I need its recorded pIC50.
Out: 8.64

In: I have this compound here, CC[C@H]1CN(CC(=O)Nc2cnc(C)c(NC(=O)c3cnn4cc(-c5cnn(C)c5)sc34)c2)CCO1 , and I need its recorded pIC50.
Out: 8.59

In: I have this compound here, Cc1ncc(C(=O)NCCN2CC3CCC2CC3)cc1NC(=O)c1cnn2cc(-c3cnn(CC(N)=O)c3)sc12 , and I need its recorded pIC50.
Out: 8.26

In: I have this compound here, COCCN(CCNC(=O)c1cnc(C)c(NC(=O)c2cnn3cc(-c4cnn(C)c4)sc23)c1)C1CCC1 , and I need its recorded pIC50.
Out: 8.33

In: I have this compound here, CC[C@H]1COCCN1CC(=O)Nc1cnc(C)c(NC(=O)c2cnn3cc(-c4cnn(C)c4)sc23)c1 , and I need its recorded pIC50.
Out: 8.54

In: I have this compound here, Cc1ncc(NC(=O)CN2CC(C)(C)C2)cc1NC(=O)c1cnn2cc(-c3cn[nH]c3)sc12 , and I need its recorded pIC50.
Out: 8.55

In: I have this compound here, Cc1ncc(NC(=O)CN2CC(C)(C)C2)cc1NC(=O)c1cnn2cc(-c3cnn(CC#N)c3)sc12 , and I need its recorded pIC50.
Out: 7.95

In: I have this compound here, Cc1ncc(NC(=O)CN2C[C@H](C)O[C@@H](C)C2)cc1NC(=O)c1cnn2cc(-c3c(C)n[nH]c3C)sc12 (relative stereo) , and I need its recorded pIC50.
Out: 8.15

In: I have this compound here, Cc1cc(C(=O)NCCN2CCCC2(C)C)sc1NC(=O)c1cnn2cc(-c3ccc(N)nc3)sc12 , and I need its recorded pIC50.
Out: 6.08

In: I have this compound here, Cc1ncc(NC(=O)CN2C[C@@H](CO)O[C@@H](C)C2)cc1NC(=O)c1cnn2cc(-c3cnn(C)c3)sc12 (relative stereo) , and I need its recorded pIC50.
Out: 7.99

In: I have this compound here, Cc1ncc(C(=O)NCCNCCO)cc1NC(=O)c1cnn2cc(-c3cnn(C)c3)sc12 , and I need its recorded pIC50.
Out: 6.55

In: I have this compound here, COc1ncccc1-c1cn2ncc(C(=O)Nc3cc(C(=O)NCCN4CCC[C@@H]4C)cnc3C)c2s1 , and I need its recorded pIC50.
Out: 8.85

In: I have this compound here, COc1ncccc1-c1cn2ncc(C(=O)Nc3cc(NC(=O)CN4CCOC(C)(C)C4)cnc3C)c2s1 , and I need its recorded pIC50.
Out: 8.74

In: I have this compound here, Cc1ncc(NC(=O)CN2CCC(F)(F)C2)cc1NC(=O)c1cnn2cc(-c3cnn(C)c3)sc12 , and I need its recorded pIC50.
Out: 8.77
